Measured values drawn from patent US20260265238A1 for this set.

Biological target: SMARCA2-HiBiT HeLa cells (protein which is expressed from the SMARCA2 gene) (Homo sapiens)
Construct: protein which is expressed from the SMARCA2 and SMARCA4 genes; host or cells: HeLa (SMARCA2-HiBiT engineered line)
Sequence (P51531 whole entry): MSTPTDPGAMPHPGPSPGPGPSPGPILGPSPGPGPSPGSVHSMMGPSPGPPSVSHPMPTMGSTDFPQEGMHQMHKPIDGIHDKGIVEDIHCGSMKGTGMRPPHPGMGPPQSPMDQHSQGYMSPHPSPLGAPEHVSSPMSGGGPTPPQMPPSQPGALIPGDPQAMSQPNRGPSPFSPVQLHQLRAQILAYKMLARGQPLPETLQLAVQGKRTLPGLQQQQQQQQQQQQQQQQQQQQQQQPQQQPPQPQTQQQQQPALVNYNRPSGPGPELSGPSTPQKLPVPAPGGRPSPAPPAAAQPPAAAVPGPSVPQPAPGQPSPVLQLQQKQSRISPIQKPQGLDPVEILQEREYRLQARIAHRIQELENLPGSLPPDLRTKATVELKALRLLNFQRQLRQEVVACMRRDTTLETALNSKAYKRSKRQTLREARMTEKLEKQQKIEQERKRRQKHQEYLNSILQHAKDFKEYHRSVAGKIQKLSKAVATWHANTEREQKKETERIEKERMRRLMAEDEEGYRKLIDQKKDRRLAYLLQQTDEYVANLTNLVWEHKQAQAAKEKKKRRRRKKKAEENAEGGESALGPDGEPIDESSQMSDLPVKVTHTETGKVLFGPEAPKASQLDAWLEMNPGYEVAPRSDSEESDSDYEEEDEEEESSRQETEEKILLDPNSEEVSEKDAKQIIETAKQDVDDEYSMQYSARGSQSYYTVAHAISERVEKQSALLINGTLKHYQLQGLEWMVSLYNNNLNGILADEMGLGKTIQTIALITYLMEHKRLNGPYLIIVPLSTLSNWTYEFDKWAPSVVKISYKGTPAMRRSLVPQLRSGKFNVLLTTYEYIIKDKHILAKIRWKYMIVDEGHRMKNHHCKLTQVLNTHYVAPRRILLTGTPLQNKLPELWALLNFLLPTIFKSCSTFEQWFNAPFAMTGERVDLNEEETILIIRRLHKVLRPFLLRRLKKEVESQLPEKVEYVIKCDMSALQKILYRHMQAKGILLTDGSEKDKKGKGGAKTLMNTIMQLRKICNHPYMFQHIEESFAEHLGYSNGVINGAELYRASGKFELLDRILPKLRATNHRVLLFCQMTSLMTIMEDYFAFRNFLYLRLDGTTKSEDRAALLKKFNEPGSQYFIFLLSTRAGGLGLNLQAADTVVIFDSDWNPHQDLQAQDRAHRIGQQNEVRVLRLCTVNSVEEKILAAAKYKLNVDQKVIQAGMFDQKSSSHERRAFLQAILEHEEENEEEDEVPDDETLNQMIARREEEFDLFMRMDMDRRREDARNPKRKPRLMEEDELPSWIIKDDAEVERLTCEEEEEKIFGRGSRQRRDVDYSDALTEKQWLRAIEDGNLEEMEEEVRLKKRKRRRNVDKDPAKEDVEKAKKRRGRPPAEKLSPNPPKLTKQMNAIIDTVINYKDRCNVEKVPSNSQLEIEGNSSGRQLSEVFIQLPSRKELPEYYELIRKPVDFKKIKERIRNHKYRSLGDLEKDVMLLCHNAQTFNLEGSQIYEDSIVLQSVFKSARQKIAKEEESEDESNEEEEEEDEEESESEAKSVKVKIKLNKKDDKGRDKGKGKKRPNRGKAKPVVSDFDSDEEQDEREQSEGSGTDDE
Experiment: SMARCA2 degradation assay (HiBiT-fusion HeLa cell line, 24 h, luminescence)
Type: cell-based
Could you please report measured DC50 for the items listed next?

Query: Query (molecule): C[C@@H]1COC[C@H](C)N1CC#Cc1nccc(N2CCCN(c3cc(-c4ccccc4O)nnc3N)CC2)n1 [Compound P-318] ; field requested: DC50
Response: 50 to 500 nM

Query: Now the molecule C[C@@H]1CCN(c2cc(-c3ccccc3O)nnc2N)CCN1c1ccnc(C#CCN2CCC(C#N)C2)n1 (stereo partly shown) [Compound P-245]
Response: 50 to 500 nM

Query: Also need CCNC(=O)NCC#Cc1nccc(N2CCCN(c3cc(-c4ccccc4O)nnc3N)CC2)n1 [Compound P-326] , thanks.
Response: 500 to 5000 nM

Query: Field entry: C[C@@H]1CCN(c2cc(-c3ccccc3O)nnc2N)CCN1c1ccnc(C#CCN2CC(C#N)C2)n1 [Compound P-215]
Response: 50 to 500 nM
